assayed target: SMARCA2 (Homo sapiens)
Sequence (P51531 whole entry): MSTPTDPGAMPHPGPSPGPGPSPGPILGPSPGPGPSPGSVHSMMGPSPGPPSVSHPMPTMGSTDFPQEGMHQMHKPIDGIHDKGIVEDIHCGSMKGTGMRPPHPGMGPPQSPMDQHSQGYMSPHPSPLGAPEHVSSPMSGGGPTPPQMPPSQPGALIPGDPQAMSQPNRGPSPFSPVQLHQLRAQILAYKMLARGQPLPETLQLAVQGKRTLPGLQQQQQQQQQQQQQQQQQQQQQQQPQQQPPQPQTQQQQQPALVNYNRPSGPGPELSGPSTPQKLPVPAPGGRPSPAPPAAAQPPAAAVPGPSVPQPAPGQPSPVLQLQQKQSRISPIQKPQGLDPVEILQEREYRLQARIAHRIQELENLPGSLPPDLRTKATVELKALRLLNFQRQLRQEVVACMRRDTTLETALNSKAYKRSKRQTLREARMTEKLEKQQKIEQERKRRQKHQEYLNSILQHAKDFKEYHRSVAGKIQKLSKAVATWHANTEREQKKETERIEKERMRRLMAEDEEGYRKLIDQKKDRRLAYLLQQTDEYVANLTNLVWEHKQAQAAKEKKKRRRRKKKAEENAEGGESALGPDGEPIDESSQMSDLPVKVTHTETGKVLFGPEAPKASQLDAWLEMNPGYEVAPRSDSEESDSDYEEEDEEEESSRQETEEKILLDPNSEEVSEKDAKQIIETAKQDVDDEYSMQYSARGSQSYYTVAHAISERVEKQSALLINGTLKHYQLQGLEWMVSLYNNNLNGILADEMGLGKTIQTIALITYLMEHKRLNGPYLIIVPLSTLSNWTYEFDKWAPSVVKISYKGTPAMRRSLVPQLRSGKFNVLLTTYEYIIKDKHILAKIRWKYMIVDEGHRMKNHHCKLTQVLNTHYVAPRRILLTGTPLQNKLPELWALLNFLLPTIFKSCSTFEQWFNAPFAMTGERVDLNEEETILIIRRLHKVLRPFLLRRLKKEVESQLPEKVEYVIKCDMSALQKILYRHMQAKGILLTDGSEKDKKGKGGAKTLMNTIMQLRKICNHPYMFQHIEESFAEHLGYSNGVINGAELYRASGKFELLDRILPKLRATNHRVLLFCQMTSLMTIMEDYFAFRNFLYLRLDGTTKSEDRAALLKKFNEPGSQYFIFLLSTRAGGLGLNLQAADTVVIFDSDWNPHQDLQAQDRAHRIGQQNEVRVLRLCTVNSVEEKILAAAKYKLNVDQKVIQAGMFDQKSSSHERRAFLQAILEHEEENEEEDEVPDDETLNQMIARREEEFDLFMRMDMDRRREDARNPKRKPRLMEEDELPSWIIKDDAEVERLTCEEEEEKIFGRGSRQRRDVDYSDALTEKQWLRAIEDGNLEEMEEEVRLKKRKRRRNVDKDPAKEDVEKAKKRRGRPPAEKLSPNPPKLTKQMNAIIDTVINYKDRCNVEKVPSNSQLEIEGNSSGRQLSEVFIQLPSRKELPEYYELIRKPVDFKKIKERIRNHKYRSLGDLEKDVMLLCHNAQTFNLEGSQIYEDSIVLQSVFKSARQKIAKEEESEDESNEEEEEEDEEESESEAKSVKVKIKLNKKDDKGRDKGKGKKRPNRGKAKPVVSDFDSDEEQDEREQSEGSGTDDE
experimental details: MSD SMARCA2 degradation in A549 cell line
Type: cell-based
applied conditions: A549, A549 cells, 24 h
Entries and their measured Dmax follow.

compound	Dmax
Cc1cc(F)ccc1C#CCNC(=O)[C@@H]1C[C@@H](O)CN1C(=O)[C@@H](NC(=O)[C@H]1CCC2(CC1)C[C@H](N1CCC(c3cnc(N4CCN5c6cc(-c7ccccc7O)nnc6NC[C@H]5C4)nc3)CC1)C2)C(C)(C)C (single isomer, unassigned)	< 50%
C#Cc1ccc([C@@H](C)NC(=O)[C@@H]2C[C@@H](O)CN2C(=O)C(c2cc(N3CCC(CN4CCC(N5CCC(N6CCN7c8cc(-c9ccccc9O)nnc8NC[C@H]7C6)CC5)CC4)CC3)no2)C(C)C)c(Cl)c1 (stereo partly shown)	> 90%
C#Cc1ccc(CNC(=O)[C@@H]2C[C@@H](O)CN2C(=O)[C@@H](NC(=O)[C@H]2CC[C@@H](CN3CCC(c4cnc(N5CCN6c7cc(-c8ccccc8O)nnc7NC[C@H]6C5)nc4)CC3)CC2)C(C)(C)C)cc1	> 90%
Cc1ncsc1-c1ccc(CNC(=O)[C@@H]2C[C@@H](O)CN2C(=O)[C@@H](NC(=O)[C@H]2CC[C@H](c3ccc(-c4cnc(N5CCN6c7cc(-c8ccccc8O)nnc7NC[C@H]6C5)nc4)cc3)CC2)C(C)(C)C)cc1	> 90%
